Reference for the values: PubChem BioAssay (EPA / NIEHS)

Assay: ATG_NRF2_ARE_CIS: Attagene CIS-FACTORIAL HepG2 Assay for human Nuclear Factor Erythroid 2 Related Factor 2 (NFR2) response to Antioxidant Response Elements (ARE) (AID 2282992)
Conditions: HepG2 Attagene ARE/NRF2 reporter, transcription factor activity; actives raise or lower the signal
Calls of active or inactive are those of the source. How the source made its calls: active means hit-call score of the fitted dose curve at least 0.9, where 1 is the maximum; inactive means score below 0.9.
Respond using exactly one of the listed classes: active, inactive

Below are worked cases with known answers.
Molecule	Answer Label
O=C(CCCCCCCCc1cccnc1)N1CCC(C=C(c2ccccc2)c2ccccc2)CC1	active
CC(C)CCO	inactive
CC[C@H]1CC[C@H](NCc2cc3c(cc2OC)[C@H]2C[C@H]2C(=O)N3C)[C@H](c2ccccc2)N1	inactive
O=C(OC[C@H]1O[C@@H](OC(=O)c2cc(O)c(O)c(OC(=O)c3cc(O)c(O)c(O)c3)c2)[C@H](OC(=O)c2cc(O)c(O)c(OC(=O)c3cc(O)c(O)c(O)c3)c2)[C@@H](OC(=O)c2cc(O)c(O)c(OC(=O)c3cc(O)c(O)c(O)c3)c2)[C@@H]1OC(=O)c1cc(O)c(O)c(OC(=O)c2cc(O)c(O)c(O)c2)c1)c1cc(O)c(O)c(OC(=O)c2cc(O)c(O)c(O)c2)c1	inactive
COc1cccc(-c2ccc(/C=C\CN3CCCCCC3)cc2Cl)c1	active
O=C1CCCCCN1	inactive
O=C(O)CC(O)C(=O)O (centres undefined)	inactive
CCCCCCc1ccc(O)cc1O	active

Give the logged outcome of this assay for the following molecule: `CN(C)c1ccc(N=NS(=O)(=O)O)cc1`
active
